System: LPS-induced microglia activation
Experiment: Image-based assay of LPS-induced microglia activation (HTS and dose response)
Assay type: cell-based, rat
Details: Rattus norvegicus, Microglia, primary microglia HTS, LPS stimulation, compounds at 10 μM; read-out: LPS % inhibition
Where a SMILES comes first, the peptide text is derived from it. Bridges are numbered along the chain shown (N, C = ends). [ ]: non-standard residue; d: D form. The star is where a group is joined. Ileψ(thiazoline)Cys = CC[C@H](C)[C@H](N)C1=N[C@H](C(=O)*)CS1; dOrn = NCCC[C@@H](N)C(=O)O
Record form. Attribute: inhibition at 10 µM. Fill in for each entry.
Give bare numbers, in %.

Here are 6 molecules together with their reported answers.
CC[C@H](C)[C@H](N)C1=N[C@H](C(=O)N[C@@H](CC(C)C)C(=O)N[C@H](CCC(=O)O)C(=O)N[C@H](C(=O)N[C@H]2CCCCNC(=O)[C@H](CC(N)=O)NC(=O)[C@@H](CC(=O)O)NC(=O)[C@H](Cc3cnc[nH]3)NC(=O)[C@@H](Cc3ccccc3)NC(=O)[C@H]([C@@H](C)CC)NC(=O)[C@@H](CCCN)NC2=O)[C@@H](C)CC)CS1 [Bacitracin, reference compound] ({Ileψ(thiazoline)Cys}-L[dE]IK[dOrn]I[dF]H[dD]N; lactam 4-C) | 6
N=C(N)NN | 12
CCOc1ccccc1C(N)=O [Ethenzamide] | 5
CCOC(=O)c1ccc(O)cc1 | 8
Cc1c(OCC(F)(F)F)ccnc1C[S@@+]([O-])c1nc2ccccc2[nH]1 | -12
CC(C)(C)NCC(O)COc1cccc2c1CC(O)C(O)C2 (stereo not shown) | 108

Could you tell me inhibition at 10 µM for each of these molecules? They are listed below.
1. CC(=O)OCC(=O)[C@@]1(OC(C)=O)[C@@H](C)C[C@H]2[C@@H]3C[C@H](F)C4=CC(=O)C=C[C@]4(C)[C@@]3(F)[C@@H](O)C[C@@]21C [Diflorasone diacetate, reference compound]
2. CC(=O)Nc1cc([As](=O)(O)O)ccc1O

RESULT:
31
13

---

Tested on: primary rat microglia
Assay: Cell toxicity (dead cells, size <150 μm2) in LPS assay
Settings: primary microglia HTS, 10 μM, LPS assay, cell size <150 μm^2 as marker of toxicity
Record form. Attribute: LPS % cell toxicity. Fill in for each entry.
Give bare numbers, in %.

O=C(O[C@H]1C[C@H]2CC[C@@H](C1)[N+]21CCCC1)C(O)(c1ccccc1)c1ccccc1 [Trospium Chloride] | 1
CC(=O)OCC(COC(C)=O)OC(C)=O [Triacetin] | 0
Cc1cc2cc3c(C)cc(=O)oc3c(C)c2o1 [Trioxsalen] | 0

Here are 5 compounds. What values of LPS % cell toxicity were reported for them?
1. COc1ccc(CN2CCNCC2)c(OC)c1OC [Trimetazidine]
2. Cc1onc(-c2ccccc2)c1-c1ccc(S(N)(=O)=O)cc1 [Valdecoxib]
3. C=CCC1(C(C)CCC)C(=O)N=C(S)NC1=O (stereo not shown) [Thiamylal]
4. Nc1ccc(S(=O)(=O)Nc2ccc(Cl)nn2)cc1 [Sulfachlorpyridazine]
5. CN1CC(=O)N2[C@H](c3ccc4c(c3)OCO4)c3[nH]c4ccccc4c3C[C@@H]2C1=O [Tadalafil]

RESULT:
0
0
0
0
0

---

Test system: LPS-induced microglia activation
Experiment: Image-based assay of LPS-induced microglia activation (HTS and dose response)
Type: cell-based, rat
Details: Rattus norvegicus, Microglia, 48 h, primary microglia HTS, LPS stimulation, activation = cell size >800 μm2; read-out: LPS % inhibition
Please go through the items and note down their inhibition at 10 µM.
Answers are plain numbers, in %.

As a guide, the following entries are already answered.
O=C1C2CC3CC1CC(O)(C3)C2 | 8
COC1=C(OC)C(=O)C(CCCCCCCCCCO)=C(C)C1=O | 2
C#C[C@]1(O)CC[C@H]2[C@@H]3CCC4=CC(=O)CC[C@@H]4[C@H]3CC[C@@]21CC | -13

Batch request: inhibition at 10 µM per item, same order as input.
1. O=C(O)P(=O)(O)O
2. COc1c(N2CCNC(C)C2)c(F)cc2c(=O)c(C(=O)O)cn(C3CC3)c12 (stereo not drawn)
3. CS(=O)(=O)c1ccc([C@@H](O)[C@@H](CF)NC(=O)C(Cl)Cl)cc1
4. CC(C(=O)O)c1ccc(N2Cc3ccccc3C2=O)cc1 (stereo not drawn)

RESULT:
10
19
16
18

Provide inhibition at 10 µM values for the following items, in order.
1. N#Cc1nn(-c2c(Cl)cc(C(F)(F)F)cc2Cl)c(N)c1[S+]([O-])C(F)(F)F (stereo not drawn)
2. C[C@]12CCC(=O)C(O)=C1CC[C@@H]1[C@@H]2CC[C@]2(C)C(=O)CC[C@@H]12
3. C[C@H]1COc2c(N3CCN(C)CC3)c(F)cc3c(=O)c(C(=O)O)cn1c23
4. Cc1ccc(S(=O)(=O)NC(=O)NN2CC3CCCC3C2)cc1 (stereo not drawn) [Gliclazide]
5. CC#CCC(C)[C@H](O)/C=C/[C@@H]1[C@H]2C/C(=C/CCCC(=O)O)C[C@H]2C[C@H]1O (stereo partly drawn)
6. NNC(=O)c1ccncc1
7. CC(C)CCCC(C)NC(C)C (stereo not drawn)

RESULT:
1. 12
2. 10
3. 31
4. 20
5. -1
6. 19
7. 11

QUERY: Entry C[C@@H]1CN([C@H]2CC[C@](C#N)(c3ccc(F)cc3)CC2)CC[C@]1(C(=O)O)c1ccccc1 has what inhibition at 10 µM?
RESULT: 4
